protocol: growth modulation of vineyard yeast isolate – strain RM11-1a, OD600, basal, 24 h, primary screen (AID 1177);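 also: cultures grown under basal conditions with no added stressor; test concentration not given here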
condition_description: S. cerevisiae RM11-1a growth, OD600, 24 h; higher = more signal, called active from +8 up or from −8 down
Short version: z-score at least 0.5 is 1.0, less is 0.0.

// below: answered compounds
compound	qualitative_label
CCCC[C@H]1OB(O)C[C@H]2C1=C(COc1ccccc1)C[C@H]1C(=O)N(Cc3ccccc3)C(=O)[C@H]12	0.0
O=C1C2C=CC(C(O)c3cccc4ccccc34)N(n3cnnc3)C2C(=O)N1Cc1ccccc1 (stereo not given)	0.0
CN1C(=O)C2C=CC(C(O)C3=C[C@H]4C[C@@H](C3)C4(C)C)N(Nc3ccc([N+](=O)[O-])cc3[N+](=O)[O-])C2C1=O (stereo not given in full)	1.0
CCOC(=O)C=Cc1cccc(OC)c1O	0.0
O=C1OCC=C[C@H]2OC34C=CCN(c5ccc6ccccc6c5)C(=O)[C@H]3N(CCO)C(=O)[C@@H]4[C@@H]12 (stereo not given in full)	0.0

In the following, a different compound is considered.
Textbook exercise: given the entry COCCCNC(=O)[C@@]1(C)c2ccccc2C(=O)N(Cc2ccccc2)[C@H]1c1ccc(CO)cc1 , state whether its z-score is greater than or equal to 0.5. 0.0

====

protocol: compound effects on hepatocellular carcinoma cell viability – HepG2, calcein-AM fluorescence, 48 h, basal, profiling panel (AID 1164); also: test concentration not given here
condition_description: higher = more signal
The following compounds are shown together with reported z-score values.
Answer field: number only, no words.

compound	measured_value
CC(=O)N1Cc2ccccc2C[C@@]2(N=C(c3ccc(OCCCO)cc3)O[C@H]2c2ccccc2)C1=O	-1.31
C=C[C@H](OC)[C@@H](OC(=O)Nc1ccc(SC)cc1)c1ccc(OCCO)cc1	0.0758
C=CCN1C(=O)[C@]2(COC(c3ccc(OCCCO)cc3)=N2)Cc2ccccc21	0.641

Name the recorded z-score for COCCOC(=O)N1C(=O)[C@@]2(c3cc(C#Cc4ccc(OC)cc4)ccc31)[C@H](C(N)=O)[C@H]1C(=O)O[C@H](c3ccccc3)[C@H](c3ccccc3)N1[C@@H]2c1ccc(O)cc1 . -0.905

Name the recorded z-score for COCC1C2CC[C@H]3C(OCc4ccc(F)cc4C(F)(F)F)OC[C@]4(C)[C@H]3C2=C(CN4C(=O)OC(C)(C)C)[C@H](C)C1COC (stereo partly drawn) . 0.922

Name the recorded z-score for CC1(C)C(=O)C(c2ccccc2)=C2CN3C(=O)N(CCc4ccccc4)C(=O)C3(Cc3ccccc3)C=C21 (stereo not drawn) . 0.54

Name the recorded z-score for CN1C(=O)C2C=CC(C(O)C(C)(C)C)N(Nc3ccccc3)C2C1=O (stereo not drawn) . 0.19

Name the recorded z-score for C#C[C@H](O[Si](C#CCCCCCC)(C(C)C)C(C)C)c1ccccc1 . -0.616

====

The following compounds are shown together with reported z-score values.
protocol: blockers of DNA damage checkpoint Chk1 activation – imaging, HeLa, hydroxyurea, phospho-Chk1 antibody, percent positive cells, primary screen (AID 1186)
condition_description: hydroxyurea-induced phospho-Chk1 immunofluorescence imaging, higher = more signal
Answer field: number only, no words.

Examples with answers:
                                   compound  quantity_kind  measured_value
0  Cc1ccc(N2C(=O)c3ccccc3[C@@H](C(=O)NC(C)C)[C@@H]2c2ccc(CO)cc2)nc1        z-score           0.364
1  COCCn1c(C(=O)N(C)C)cc2c1C[C@H]1CN(C(=O)c3ccccc3)[C@@](Cc3ccc(F)cc3)(C(=O)OC)[C@@H]21        z-score           0.562
2  C=C[C@@H](C)[C@@H](OC(=O)Nc1ccc(OC)cc1)c1ccc(O)c2ccccc12        z-score           0.453
3  NC(=O)[C@]1(Cc2ccccc2)N=C(c2ccc(OCCCO)cc2)O[C@@H]1c1ccccc1        z-score         -0.0614
4  O=C1C2C=CC(C(O)CCc3ccccc3)N(Nc3ccccc3)C2C(=O)N1c1ccccc1 (stereo not drawn)        z-score           0.684

Name the recorded z-score for O=C1OCC=C[C@H]2OC34C=CCN(Cc5ccccc5)C(=O)[C@H]3N(CCCO)C(=O)[C@@H]4[C@@H]12 (stereo partly drawn) . -1.44

Name the recorded z-score for CO[C@H]1O[C@H](CO)[C@@H](OC(=O)Nc2ccc(C(F)(F)F)cc2)[C@H](OC(=O)Nc2ccccc2)[C@@H]1OC(=O)Nc1ccccc1 . 0.666

Name the recorded z-score for O=C1OCCC/C=C\[C@H]2OC34C=CCN(Cn5nnc6ccccc65)C(=O)[C@H]3N(CCCO)C(=O)[C@@H]4C12 (stereo partly drawn) . 0.472

====

Test system: Human papillomavirus type 1a E7 protein (residues 1-88)
protocol: HPV1a E7 small-molecule binders, primary screen, biochemical, small-molecule microarray, residues 1-88, 635 nm (AID 1129)
condition_description: small-molecule microarray binding, fluorescence 635 nm; higher = more signal
Short version: composite z-score at least -0.05 is Y, less is N.

compound	system_tested	qualitative_label
C=C(CCCC)C(=O)CC[C@@H](OC(=O)c1ccccc1-c1ccccc1C(=O)O)c1ccc(CO)o1	Human papillomavirus type 1a E7 protein (residues 1-88)	Y
CC1(C)C(=O)C(c2ccccc2)=C2CN3C(=O)N(CCc4ccccc4)C(=O)C3(Cc3ccccc3)C=C21 (configuration not stated)	Human papillomavirus type 1a E7 protein (residues 1-88)	Y
C=CCC(OC(C)=O)[C@@H]1[C@@H](N(Cc2cc3ccccc3o2)C(=O)c2ccc(C)cc2)c2cc(OCCCO)ccc2N1C(=O)c1ccc(-c2ccccc2)cc1 (some centres not stated)	Human papillomavirus type 1a E7 protein (residues 1-88)	Y
O[C@@H](Cc1ccccc1)[C@@H](/C=C/c1ccccc1)NCc1ccccc1Br	Human papillomavirus type 1a E7 protein (residues 1-88)	N
[N-]=[N+]=NCc1ccccc1C[C@]1(C(=O)N2CCOCC2)N=C(c2ccc(OCCCO)cc2)O[C@H]1c1ccccc1	Human papillomavirus type 1a E7 protein (residues 1-88)	Y

In the following, a different compound is considered.
Textbook exercise: given the entry Cc1ccc(S[C@]2(C(=O)NCC(C)C)CC(=O)N(Cc3ccccc3)[C@@H]2c2ccc(CO)cc2)cc1 , state whether its composite z-score is greater than or equal to -0.05. N

====

Tested on: Lefty1
protocol: Lefty1 protein binding to printed compounds – biochemical, small-molecule microarray, 635/667 nm fluorescence, primary screen (AID 1139)
condition_description: fluorescence 635/667, higher = more signal
quantity_kind: composite z-score
Answer field: number only, no words.

Examples with answers:
compound	measured_value
COC(=O)C(CC#Cc1ccc2c(c1)[C@]1(C(=O)N2)[C@H](C(=O)N2CCCCCCC2)[C@H]2C(=O)O[C@H](c3ccccc3)[C@H](c3ccccc3)N2[C@@H]1c1ccccc1OCCO)C(=O)OC	1.89
O=C1c2ccccc2[C@](Cc2ccccc2I)(C(=O)O)[C@H](c2ccc(CO)cc2)N1Cc1ccccc1C(F)(F)F	-0.374

Name the recorded composite z-score for O=C1O[C@H](c2ccccc2)[C@H](c2ccccc2)N2[C@H]1[C@@H](C(=O)NC[C@H](O)c1ccccc1)[C@]1(C(=O)Nc3ccc(C#CC4=CCCCC4)cc31)[C@H]2c1ccc(O)cc1 . 0.82

Name the recorded composite z-score for CC(C)N1C(=O)c2ccccc2[C@](C)(C(=O)NC2CC2)[C@@H]1c1ccc(CO)cc1 . 0.0517

Name the recorded composite z-score for CCCC[C@H]1OB(O)C[C@H]2C1=C(COc1ccccc1)C[C@H]1C(=O)N(Cc3ccccc3)C(=O)[C@H]12 . 0.872

Name the recorded composite z-score for CC1CC/C=C\[C@H]2OC34C=CCN(c5ccc6ccccc6c5)C(=O)[C@H]3N(CCCCCO)C(=O)[C@@H]4C2C(=O)O1 (some centres not stated) . -0.994

Name the recorded composite z-score for CN1C(=O)C2C=CC(C(O)C(c3ccccc3)c3ccccc3)N(Nc3ccccc3)C2C1=O (configuration not stated) . 0.643

====

protocol: JC-1 mitochondrial signal, unstimulated MM1S myeloma – cell-based, JC-1 fluorescence, 24 h, 100 nL compound, profiling panel (AID 1170); also: test concentration not given here
condition_description: MM1S mitochondrial potential, higher = more signal
Short version: z-score at least -0.3 is fulfilled, less is not fulfilled.

Textbook exercise: given the entry Cc1ccc(N2C(=O)c3ccccc3[C@@H](C(=O)NCC(C)C)[C@@H]2c2ccc(CO)cc2)nc1 , state whether its z-score is greater than or equal to -0.3. fulfilled

Textbook exercise: given the entry CN(C)CCCCCCNC(=O)[C@@H]1C[C@@H]2C(=O)N[C@@H](Cc3ccccc3)C(=O)N2[C@@H]1c1cccc(OCCO)c1 , state whether its z-score is greater than or equal to -0.3. fulfilled

Textbook exercise: given the entry [N-]=[N+]=Nc1ccccc1[C@@H]1OC(c2ccc(OCCCO)cc2)=N[C@]1(CCS(=O)(=O)c1ccccc1)C(=O)O , state whether its z-score is greater than or equal to -0.3. not fulfilled
